Molecular target: Trypsin-activated Cry1F toxin from Bacillus thuringiensis (Bacillus thuringiensis, UniProt Q03746 1-1174)
Sequence (Q03746 28-612 limits assumed): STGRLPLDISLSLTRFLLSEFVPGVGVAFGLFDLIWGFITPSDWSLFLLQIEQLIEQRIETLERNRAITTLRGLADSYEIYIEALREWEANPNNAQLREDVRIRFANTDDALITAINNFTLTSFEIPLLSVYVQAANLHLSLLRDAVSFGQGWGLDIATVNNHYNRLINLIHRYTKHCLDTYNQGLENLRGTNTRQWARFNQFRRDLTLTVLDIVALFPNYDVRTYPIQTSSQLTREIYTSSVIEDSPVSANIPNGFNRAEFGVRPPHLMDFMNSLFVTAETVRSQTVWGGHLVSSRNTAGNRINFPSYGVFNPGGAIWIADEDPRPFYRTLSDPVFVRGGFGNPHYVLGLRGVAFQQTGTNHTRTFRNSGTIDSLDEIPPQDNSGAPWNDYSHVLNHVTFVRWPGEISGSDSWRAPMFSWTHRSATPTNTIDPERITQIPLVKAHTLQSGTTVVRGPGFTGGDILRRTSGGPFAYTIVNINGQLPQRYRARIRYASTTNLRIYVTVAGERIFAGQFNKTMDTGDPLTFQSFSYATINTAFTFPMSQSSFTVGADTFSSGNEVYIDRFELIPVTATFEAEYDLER
Assay: SPR; Biacore 8K; activated Cry1F immobilised on a CM5 chip (10 mM sodium acetate pH 4.0); analytes without His tag in 10 mM HEPES, 150 mM NaCl, 3 mM EDTA, 0.005% Tween-20, pH 7.4; 30 uL/min, association 120 s, dissociation 280 s; 1:1 binding model
Conditions: both partners purified
READOUT_KIND: Kd (nM)
# value in nM; strip the unit string

Study these solved cases before continuing.
BINDER: C-type lectin lectoxin-Phi1-like (C-lectoxin), His tag removed (natural protein, Wild-type trypsin-activated core; the text prints neither the Cry1F subtype nor the limits. Cry1Fa assumed, with the conventional tryptic core 28-612.) DVPKDYIVNPNDSHGYKLMYHAKTWTEARDDCANVGAKLAVPKTRDQFEFIQKIVRSMQYQSIVGTEYKLLVWLGISNLKNYQVWANVDGENIEDTEFHTWAGQNGLKSENPAEPHCVGMDSMNFGLRDWWCHQRQPYICEILTVQNATQ
MEASURED_VALUE: 46.6

BINDER: hemolymph lipopolysaccharide-binding protein (LBP), His tag removed (natural protein, Wild-type trypsin-activated core; the text prints neither the Cry1F subtype nor the limits. Cry1Fa assumed, with the conventional tryptic core 28-612.) QKRYRNDYVYDANTDAFYKFHVNMAVHWRALTICKLEGATLMVPTSVQQIAQVHGMFKQYPDIGHYVWIGDDNADHESAEETPIIDLQPEVETEAPWERRCLVLTRRGEIQTQNCRYYQSFVCMVEAKNAPYDHRCDVYAAGYEYNTDVKSCYKIPRDIKTWNAAYAECQAHGAHLVVVNSVTERDVLQALMSRTPYLRTSFSPYHYIAGIRATSVIGSEVVYRTIFNETLEEAGFSEWADNEPNNQQGIEYCGSLHQRSGKYNDISCLSSFGYICEKERNE
MEASURED_VALUE: 119

# Kd of C-type mannose receptor 2-like (C-MR2), His tag removed (natural protein, Wild-type trypsin-activated core; the text prints neither the Cry1F subtype nor the limits. Cry1Fa assumed, with the conventional tryptic core 28-612.) SELNTSKSNWFRPDYSYSERTGGWFKFHSVPATWEDARLQCYYEGAELVSPFNENIIQKMIMLMDVNEPYIFTGIHSTFSKGVYTSVGGVPLHEMPVSLHSRDVSGNCVTMRSNGRVEARNCSSQYPYICFKKGPEHLTSSVCGADQEYKYEQRTGSCYKFHTLGRTWPQAFRVCVAEGGHLAIINSDVEADVIRGIFQNYPDDAFKADAKYAASIGFQGWGAVKIWWTIHGQTLQDAGYSKWDKFVPDMRSTRHYCGAVGRNGTLSHIECEGVTFPAICEKKADLV = 22.1

# Kd of CD63 antigen-like (CD63) tetraspanin, His tag removed (natural protein, Wild-type trypsin-activated core; the text prints neither the Cry1F subtype nor the limits. Cry1Fa assumed, with the conventional tryptic core 28-612.) KGNAEALVQKQLYETMQLYTHDVVVTRLWDEVQEDFSCCGVNNASDWLAPLGTANTDQGLPLSCCQFPFGTITVFNCTMATPAPTLRTEGCSTAFGAWVQSHAGS = 294
